CONDITION_CONTEXT: 476 K; Liquid; Rate of evaporation
MEASURED_PARAMETER: vapor or sublimation pressure (kPa)

1. Cc1cc(OC(C)C)cc(OC(C)C)c1 : 20.26
2. CCCCC(=O)Oc1cc(C)cc(OC(=O)CCCC)c1 [3-methyl-5-(pentanoyloxy)phenyl pentanoate] : 1.19
3. Cc1cc(OC(=O)C(C)(C)C)cc(OC(=O)C(C)(C)C)c1 : 3.898
4. Cc1cc(OCC(C)C)cc(OCC(C)C)c1 : 8.118
